Tested on: Hs-578T
Assay: Growth inhibition of human Hs578T cells assessed as cell growth at 10^-5 M incubated for 48 hrs by sulforhodamine B assay relative to control
Assay type: functional
Conditions: read-out: Activity
growth at 10 µM overview
Please state the figure in %; there is no need to write the unit.

Smiles repr: O=C1NC(=O)C(=Cc2cccn2CCCCn2c3ccccc3c(=O)c3ccccc32)C(=O)N1
Observed result: 85.1

## Task Suppose we examine the molecule O=C1NC(=O)C(=Cc2cccn2CCCn2c3ccccc3c(=O)c3ccccc32)C(=O)N1 ; what growth at 10 µM value has been reported?
## Result 115

## Task Suppose we examine the molecule O=C1NC(=O)C(=Cc2cccn2CCCCCn2c3ccccc3c(=O)c3ccccc32)C(=O)N1 ; what growth at 10 µM value has been reported?
## Result 106

## Task Suppose we examine the molecule O=C1/C(=C\c2cccn2CCCCCCn2c3ccccc3c(=O)c3ccccc32)c2ccccc2N1c1c(Cl)cccc1Cl ; what growth at 10 µM value has been reported?
## Result 103

## Task Suppose we examine the molecule O=C1/C(=C\c2cccn2CCCCCn2c3ccccc3c(=O)c3ccccc32)c2ccccc2N1c1c(Cl)cccc1Cl ; what growth at 10 µM value has been reported?
## Result 101

These entries and their values trace back to ChEMBL document CHEMBL4308864.
